Property measured: melting point

# Compound, Result
rows = [
    ("Cc1c(NC(=O)CCCC(=O)c2ccc(Cl)cc2)ccc2cc(CN3CCCC3)cnc12", "173 to 174 °C"),
    ("NC(=O)N(O)Cc1cc(Br)cs1", "162 to 164 °C"),
    ("CC(C)(C)COc1c(-c2ccc(S(C)(=O)=O)cc2)cnn(-c2ccc(F)c(F)c2)c1=O", "126 to 128 °C"),
    ("Cc1c(C(=O)N[C@H](C)[C@](O)(Cn2cncn2)c2ccc(F)cc2F)cnn1-c1ccc(C(F)(F)F)cc1", "180 to 181 °C"),
    ("COc1ccc(-c2cc(Cl)c3ccccc3n2)cc1C", "90 to 92 °C"),
    ("CCCc1c(OCCCS(=O)(=O)c2c(C(C)C)nn3ccccc23)ccc(C(C)=O)c1O", "170 °C"),
    ("O=C1O[C@@H](CN2CCC(Cc3ccc(F)cc3)CC2)CN1c1ccc(O)cc1", "164 to 165 °C"),
    ("Cc1cc(-n2cncn2)c2cccc(OCc3c(Cl)ccc(S(=O)(=O)N4CCC[C@H]4C(=O)N4CCN(c5ccccn5)CC4)c3Cl)c2n1", "108 °C"),
    ("CCn1cc(C(=O)O)c(=O)c2cc(F)c(-c3cc(C)nc(C)c3)cc21", "> 310 °C"),
    ("CCOC(=O)C=C(C)C=CC=C(C)C=Cc1c(C)cc(C)c(Cl)c1C", "84 to 85 °C"),
    ("CC(C)(O)c1ccc(CNC(=O)c2cccnc2Oc2ccc3c(c2)OCO3)cc1", "118 to 120 °C"),
    ("CCOC(=O)C1CCc2ccc(NC(=O)OC(C)(C)C)c(C)c2O1 (stereo unspecified)", "123 to 124 °C"),
    ("CCOC(=O)CCCOc1ccc(C(C)=O)cc1OC", "53 to 55 °C"),
    ("Cc1nnc(N(Cc2ccccc2)C(=O)Cc2ccccc2)s1", "128 °C"),
    ("CC(C)=NOCCCCn1cnc2c(N)nc3c(c21)CCCC3", "151 to 153 °C"),
    ("NS(=O)(=O)c1ccc(-n2sc3cc(F)ccc3c2=O)cc1", "265 to 266 °C"),
]

====

# Compound, melting point
data = [
    ("O=[N+]([O-])c1ccc(C(O)C(CO)N2CCC(Cc3ccccc3)CC2)cc1 (stereo not drawn)", "122 to 124 °C"),
    ("CC1=C(Nc2ccc(C3=NNC(=O)CC3C)cc2)CCC1=O (stereo not drawn)", "285 to 286 °C"),
    ("CN1OC(CNc2ccccc2)CC1(Cn1ccnc1)c1ccc(Cl)cc1 (stereo not drawn)", "159 to 160 °C"),
    ("COC[C@H](Cc1ccccc1)Nc1nc(C)nc2c1nnn2-c1ccc(C(C)C)cc1Br", "67 to 69 °C"),
    ("O=Cc1ccc(-c2nnn[nH]2)cc1", "180 to 182 °C"),
    ("O=C(c1ccccc1)C(c1ccc(Cl)cc1)c1c(Cl)cc(-n2ncc(=O)[nH]c2=O)cc1Cl (stereo not drawn)", "143 °C"),
    ("O=C(O)c1cc(Br)c2ccccn2c1=O", "> 250 °C"),
    ("CCCCc1noc(-c2cccc(NC(=O)N(C)C)c2)n1", "108 to 110 °C"),
    ("CCC(Oc1cccc(C)c1C)C1=NCCN1C=Nc1ccccn1 (stereo not drawn)", "108 to 110 °C"),
    ("CCCCCC(=O)C=Cc1ccc(CCCCCCCC(=O)O)o1", "58 to 59 °C"),
    ("CN1Cc2c(C(N)=O)ncn2-c2sccc2C1=O", "> 250 °C"),
    ("Nc1ccc(S(=O)(=O)Nc2ccccc2C(=O)NCCCn2ccnc2)cc1", "171 to 175 °C"),
    ("CS(=O)(=O)c1ccc(-n2cccc2-c2ccc(F)cc2)cc1", "195 to 196 °C"),
    ("COc1cccc(C=O)c1OC(C)=O", "75.4 to 76.2 °C"),
    ("COC(=O)c1c(C(=O)OC)c(-c2ccc(OC)c(OC)c2)c2cc3c(cc2c1O)OCO3", "158 to 159 °C"),
    ("NC(=O)c1ccc(N2CCOCC2)cc1", "220 to 221 °C"),
    ("O=C1CCCc2ccc(OCCCC(=O)N3CCOCC3)cc21", "88 to 90 °C"),
    ("C#CCC1C(=O)NOc2cc(F)c(NC(=S)N3CCCC=N3)cc21 (stereo not drawn)", "151 to 155 °C"),
]

====

Consider the following compounds and their measured melting point readings.

# Compound, melting point
data = [
    ("O=C(Nc1c[nH]nc1C(=O)Nc1cccc(C(F)(F)F)c1)c1ccccn1", "236 to 237 °C"),
    ("COC(=O)C1=C(C)NC(C)=C(NC(=O)Nc2ccccc2)C1c1ccccc1Cl (centres undefined)", "203 to 205 °C"),
    ("O=C1CCn2c1ccc2C(=O)c1ccc(Cl)cc1", "165 to 166 °C"),
    ("Cc1cc(C(=O)N[C@@H]2CCc3cccc(N4CCN(C)CC4)c3C2)ccc1N1CCOCC1", "172 to 175 °C"),
]

====

Property measured: melting point

# Compound, Result
rows = [
    ("CCOC(=O)C1=C(C)NC(CF)=C(C(=O)OCC)C1c1cccc([N+](=O)[O-])c1 (stereo unspecified)", "139 to 141 °C"),
    ("COC(=O)c1ccccc1S(=O)(=O)NC(=O)Nc1nc(Cl)cn(C)c1=O", "213 to 214 °C"),
    ("c1ccc(-c2cc3nccnc3[nH]2)nc1", "234 to 235 °C"),
    ("Cc1c[nH]c(=O)nc1N", "264 to 269 °C"),
    ("N#Cc1cccc2[nH]ccc12", "115 to 116 °C"),
    ("C[C@H]1c2cc(F)ccc2-c2ccc(F)cc2N1S(=O)(=O)c1cccc(O)c1", "181 to 182 °C"),
    ("C#CCOCCn1c(CN2CCN(C)CC2)nc2cccnc21", "117 °C"),
    ("COC(=O)NC1CCc2c(ccc(OC)c2OC)C1 (stereo unspecified)", "109 to 111 °C"),
    ("COc1ccc(OC2COc3ccc(OC(C)c4ccc5ccccc5n4)cc3C2O)cc1 (stereo unspecified)", "81 to 85 °C"),
    ("O=C(c1ccccc1)c1cccc2c1NCC2", "124 to 125 °C"),
    ("COC(=O)c1ccc2c(c1)C(=O)C(=Cc1ccc(OC)c(OC)c1OC)O2", "181 to 183 °C"),
]

====

# Structure, melting point
data = [
    ("CCN1CCN(C(=O)c2ccc(N)cc2Cl)CC1", "123 to 124 °C"),
    ("CCCN(C(=O)n1ccnc1)c1ccccc1Cl", "75.5 to 76.5 °C"),
    ("CCOC(=O)c1cn(CC)c2ncncc2c1=O", "136 °C"),
    ("COC(=O)c1ccccc1S(=O)(=O)NC(=O)Nc1nc(C)cc(OC)n1", "173 to 179 °C"),
]

====

Recorded melting point, one value per entry.

# Structure, melting point
data = [
    ("CCCCCCCCCCCCCOc1ccc(CNc2ccc(C(=O)O)cc2)cc1", "110 to 113 °C"),
    ("NC(=O)c1cc2c3ccccc3[nH]c(=O)n2n1", "355 to 358 °C"),
    ("CC1(C)SCN(CCCCN2CCN(c3n[nH]c4cc(F)ccc34)CC2)C1=O", "123 to 125 °C"),
    ("CCOC(=O)c1ccc(OCC#Cc2ccccc2)c(OC)c1", "62 to 65 °C"),
    ("O=C(C=Cc1ccc(O)cc1)c1c(O)cccc1O", "190 to 192 °C"),
    ("CCS(=O)(=O)Nc1ccc(Cc2ccc(N)cc2)cc1", "108 to 109 °C"),
]

====

Listing: melting point of selected compounds
Property measured: melting point

# Compound, Property measured, Result
measured = [
    ("Cc1ccc2c(CC(=O)O)c(C(=O)c3ccc(Cl)cc3)[nH]c2c1", "melting point", "193 to 195 °C"),
    ("N#Cc1cc2c(=O)c3ccccc3ccn2c1", "melting point", "197 °C"),
    ("CCOC(=O)c1cccc(C)c1S(=O)(=O)NC(=O)Nc1nc(OCC(F)(F)F)nc(N(C)C)n1", "melting point", "134 to 142 °C"),
    ("O=C(Cc1cccc(Cl)c1F)c1ccc(F)c(Cl)c1", "melting point", "109 to 111 °C"),
    ("Cc1ccc(C(=O)/C(=C\\c2ccccc2)C(=O)OC(C)(C)C)c(O)c1", "melting point", "92 to 95 °C"),
    ("Cc1ccc(-n2c(=O)n(O)c(=O)c3cc(F)c(N4CCCC4)nc32)cc1", "melting point", "228 to 230 °C"),
    ("COCC(=O)Nc1ccc(C2=NNC(=O)CC2C)cc1 (configuration not stated)", "melting point", "212 °C"),
    ("CC(C)(C)c1cc(C(=O)c2cccs2)cc(CN2CCCCC2)c1O", "melting point", "132 to 133 °C"),
    ("COc1ccc(C(=O)c2c(CBr)n(C(C)=O)c(=O)n2C(C)=O)cc1", "melting point", "135 to 136 °C"),
    ("CNC(=O)N1CCc2[nH]cnc2C1c1ccco1 (configuration not stated)", "melting point", "205 °C"),
    ("CN1C(=O)CN(c2cccc(O)c2)NC1=O", "melting point", "95 to 96 °C"),
    ("CNc1nc(Cc2cc(OC)c(OC)c(OC)c2)nc2sc(C#N)c(C)c12", "melting point", "194 to 195 °C"),
    ("c1ccc(CCn2cnc3cnc4ccccc4c32)cc1", "melting point", "105 to 108 °C"),
    ("NC(=O)C1CCN(C(=O)CNC(=O)CN2CCCC2=O)CC1", "melting point", "217 to 219 °C"),
    ("O=C(O)C1=Cc2cc(I)cc(I)c2OC1C(F)(F)F (configuration not stated)", "melting point", "243 to 244 °C"),
    ("O=C(Nc1ccc(Cl)cc1)OCCOc1ccc(Oc2ccccc2)cc1Cl", "melting point", "155 to 156 °C"),
    ("Cc1ccc(C)n1NC(=O)COc1ccc(C2=NNC(=O)NC2C)cc1Cl (configuration not stated)", "melting point", "189 to 190 °C"),
]
